Test system: HeLa Kyoto
Experiment: solubility change mitosis vs G1/S (difference of NP-40 vs SDS log2 ratios) (log2 ratio difference); higher = more soluble in mitosis
Measurement label: solubility change mitosis (log2)

As a guide, the following entries are already answered.
- Residue string: "MIRNGRGAAGGAEQPGPGGRRAVRVWCDGCYDMVHYGHSNQLRQARAMGDYLIVGVHTDEEIAKHKGPPVFTQEERYKMVQAIKWVDEVVPAAPYVTTLETLDKYNCDFCVHGNDITLTVDGRDTYEEVKQAGRYRECKRTQGVSTTDLVGRMLLVTKAHHSSQEMSSEYREYADSFGKCPGGRNPWTGVSQFLQTSQKIIQFASGKEPQPGETVIYVAGAFDLFHIGHVDFLEKVHRLAERPYIIAGLHFDQEVNHYKGKNYPIMNLHERTLSVLACRYVSEVVIGAPYAVTAELLSHFKVDLVCHGKTEIIPDRDGSDPYQEPKRRGIFRQIDSGSNLTTDLIVQRIITNRLEYEARNQKKEAKELAFLEAARQQAAQPLGERDGDF [PCYT2]"
  Measurement label: "solubility change mitosis (log2)"
  Result: -0.199
- Residue string: "MLRSVWNFLKRHKKKCIFLGTVLGGVYILGKYGQKKIREIQEREAAEYIAQARRQYHFESNQRTCNMTVLSMLPTLREALMQQLNSESLTALLKNRPSNKLEIWEDLKIISFTRSTVAVYSTCMLVVLLRVQLNIIGGYIYLDNAAVGKNGTTILAPPDVQQQYLSSIQHLLGDGLTELITVIKQAVQKVLGSVSLKHSLSLLDLEQKLKEIRNLVEQHKSSSWINKDGSKPLLCHYMMPDEETPLAVQACGLSPRDITTIKLLNETRDMLESPDFSTVLNTCLNRGFSRLLDNMAEFFRPTEQDLQHGNSMNSLSSVSLPLAKIIPIVNGQIHSVCSETPSHFVQDLLTMEQVKDFAANVYEAFSTPQQLEK [PEX3]"
  Measurement label: "solubility change mitosis (log2)"
  Result: -0.208
- Residue string: "MAAARPSLGRVLPGSSVLFLCDMQEKFRHNIAYFPQIVSVAARMLKVARLLEVPVMLTEQYPQGLGPTVPELGTEGLRPLAKTCFSMVPALQQELDSRPQLRSVLLCGIEAQACILNTTLDLLDRGLQVHVVVDACSSRSQVDRLVALARMRQSGAFLSTSEGLILQLVGDAVHPQFKEIQKLIKEPAPDSGLLGLFQGQNSLLH [ISOC2]"
  Measurement label: "solubility change mitosis (log2)"
  Result: -0.173
- Residue string: "MAAERQEALREFVAVTGAEEDRARFFLESAGWDLQIALASFYEDGGDEDIVTISQATPSSVSRGTAPSDNRVTSFRDLIHDQDEDEEEEEGQRFYAGGSERSGQQIVGPPRKKSPNELVDDLFKGAKEHGAVAVERVTKSPGETSKPRPFAGGGYRLGAAPEEESAYVAGEKRQHSSQDVHVVLKLWKSGFSLDNGELRSYQDPSNAQFLESIRRGEVPAELRRLAHGGQVNLDMEDHRDEDFVKPKGAFKAFTGEGQKLGSTAPQVLSTSSPAQQAENEAKASSSILIDESEPTTNIQIRLADGGRLVQKFNHSHRISDIRLFIVDARPAMAATSFILMTTFPNKELADESQTLKEANLLNAVIVQRLT [NSFL1C]"
  Measurement label: "solubility change mitosis (log2)"
  Result: 0.0342
- Residue string: "MGWSQDLFRALWRSLSREVKEHVGTDQFGNKYYYIPQYKNWRGQTIREKRIVEAANKKEVDYEAGDIPTEWEAWIRRTRKTPPTMEEILKNEKHREEIKIKSQDFYEKEKLLSKETSEELLPPPVQTQIKGHASAPYFGKEEPSVAPSSTGKTFQPGSWMPRDGKSHNQ [NDUFAF2]"
  Measurement label: "solubility change mitosis (log2)"
  Result: 0.329
- Residue string: "MCGNTMSVPLLTDAATVSGAERETAAVIFLHGLGDTGHSWADALSTIRLPHVKYICPHAPRIPVTLNMKMVMPSWFDLMGLSPDAPEDEAGIKKAAENIKALIEHEMKNGIPANRIVLGGFSQGGALSLYTALTCPHPLAGIVALSCWLPLHRAFPQAANGSAKDLAILQCHGELDPMVPVRFGALTAEKLRSVVTPARVQFKTYPGVMHSSCPQEMAAVKEFLEKLLPPV [LYPLA2]"
  Measurement label: "solubility change mitosis (log2)"
  Result: 0.185
- Residue string: "MAASRWARKAVVLLCASDLLLLLLLLPPPGSCAAEGSPGTPDESTPPPRKKKKDIRDYNDADMARLLEQWEKDDDIEEGDLPEHKRPSAPVDFSKIDPSKPESILKMTKKGKTLMMFVTVSGSPTEKETEEITSLWQGSLFNANYDVQRFIVGSDRAIFMLRDGSYAWEIKDFLVGQDRCADVTLEGQVYPGKGGGSKEKNKTKQDKGKKKKEGDLKSRSSKEENRAGNKREDL [MESDC2]"
  Measurement label: "solubility change mitosis (log2)"
  Result: -0.0464
- Residue string: "MVGREKELSIHFVPGSCRLVEEEVNIPNRRVLVTGATGLLGRAVHKEFQQNNWHAVGCGFRRARPKFEQVNLLDSNAVHHIIHDFQPHVIVHCAAERRPDVVENQPDAASQLNVDASGNLAKEAAAVGAFLIYISSDYVFDGTNPPYREEDIPAPLNLYGKTKLDGEKAVLENNLGAAVLRIPILYGEVEKLEESAVTVMFDKVQFSNKSANMDHWQQRFPTHVKDVATVCRQLAEKRMLDPSIKGTFHWSGNEQMTKYEMACAIADAFNLPSSHLRPITDSPVLGAQRPRNAQLDCSKLETLGIGQRTPFRIGIKESLWPFLIDKRWRQTVFH [MAT2B]"
  Measurement label: "solubility change mitosis (log2)"
  Result: -0.0436

Prompt line: Which solubility change mitosis (log2) is listed for MAEPDPSHPLETQAGKVQEAQDSDSDSEGGAAGGEADMDFLRNLFSQTLSLGSQKERLLDELTLEGVARYMQSERCRRVICLVGAGISTSAGIPDFRSPSTGLYDNLEKYHLPYPEAIFEISYFKKHPEPFFALAKELYPGQFKPTICHYFMRLLKDKGLLLRCYTQNIDTLERIAGLEQEDLVEAHGTFYTSHCVSASCRHEYPLSWMKEKIFSEVTPKCEDCQSLVKPDIVFFGESLPARFFSCMQSDFLKVDLLLVMGTSLQVQPFASLISKAPLSTPRLLINKEKAGQSDPFLGMIMGLGGGMDFDSKKAYRDVAWLGECDQGCLALAELLGWKKELEDLVRREHASIDAQSGAGVPNPSTSASPKKSPPPAKDEARTTEREKPQ [SIRT2] ?
Response line: -0.026

Prompt line: Which solubility change mitosis (log2) is listed for MAPDPWFSTYDSTCQIAQEIAEKIQQRNQYERKGEKAPKLTVTIRALLQNLKEKIALLKDLLLRAVSTHQITQLEGDRRQNLLDDLVTRERLLLASFKNEGAEPDLIRSSLMSEEAKRGAPNPWLFEEPEETRGLGFDEIRQQQQKIIQEQDAGLDALSSIISRQKQMGQEIGNELDEQNEIIDDLANLVENTDEKLRNETRRVNMVDRKSASCGMIMVILLLLVAIVVVAVWPTN [STX8] ?
Response line: -0.0243

###

Examples of sequences with documented solubility in G1/S (log2) follow.
System: HeLa Kyoto
Experiment: solubility in G1/S (NP-40 vs SDS abundance) (log2 ratio); higher = more soluble
Test parameters: cell cycle stage: G1/S
Number only, no unit.

Prompt line: Which solubility in G1/S (log2) is listed for MVQAWYMDDAPGDPRQPHRPDPGRPVGLEQLRRLGVLYWKLDADKYENDPELEKIRRERNYSWMDIITICKDKLPNYEEKIKMFYEEHLHLDDEIRYILDGSGYFDVRDKEDQWIRIFMEKGDMVTLPAGIYHRFTVDEKNYTKAMRLFVGEPVWTAYNRPADHFEARGQYVKFLAQTA [ADI1] ?
Response line: 0.18

Prompt line: Which solubility in G1/S (log2) is listed for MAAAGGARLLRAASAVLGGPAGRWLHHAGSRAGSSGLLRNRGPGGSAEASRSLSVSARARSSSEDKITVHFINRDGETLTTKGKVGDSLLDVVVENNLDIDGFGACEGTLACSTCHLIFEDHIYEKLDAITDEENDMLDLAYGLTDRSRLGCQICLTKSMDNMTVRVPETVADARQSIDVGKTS [FDX1] ?
Response line: 0.338

Prompt line: Which solubility in G1/S (log2) is listed for MASYPYRQGCPGAAGQAPGAPPGSYYPGPPNSGGQYGSGLPPGGGYGGPAPGGPYGPPAGGGPYGHPNPGMFPSGTPGGPYGGAAPGGPYGQPPPSSYGAQQPGLYGQGGAPPNVDPEAYSWFQSVDSDHSGYISMKELKQALVNCNWSSFNDETCLMMINMFDKTKSGRIDVYGFSALWKFIQQWKNLFQQYDRDRSGSISYTELQQALSQMGYNLSPQFTQLLVSRYCPRSANPAMQLDRFIQVCTQLQVLTEAFREKDTAVQGNIRLSFEDFVTMTASRML [PEF1] ?
Response line: -0.126

Prompt line: Which solubility in G1/S (log2) is listed for MAAAAPDSRVSEEENLKKTPKKKMKMVTGAVASVLEDEATDTSDSEGSCGSEKDHFYSDDDAIEADSEGDAEPCDKENENDGESSVGTNMGWADAMAKVLNKKTPESKPTILVKNKKLEKEKEKLKQERLEKIKQRDKRLEWEMMCRVKPDVVQDKETERNLQRIATRGVVQLFNAVQKHQKNVDEKVKEAGSSMRKRAKLISTVSKKDFISVLRGMDGSTNETASSRKKPKAKQTEVKSEEGPGWTILRDDFMMGASMKDWDKESDGPDDSRPESASDSDT [RRP15] ?
Response line: -1.21

Prompt line: Which solubility in G1/S (log2) is listed for MLRWTRAWRLPREGLGPHGPSFARVPVAPSSSSGGRGGAEPRPLPLSYRLLDGEAALPAVVFLHGLFGSKTNFNSIAKILAQQTGRRVLTVDARNHGDSPHSPDMSYEIMSQDLQDLLPQLGLVPCVVVGHSMGGKTAMLLALQRPELVERLIAVDISPVESTGVSHFATYVAAMRAINIADELPRSRARKLADEQLSSVIQDMAVRQHLLTNLVEVDGRFVWRVNLDALTQHLDKILAFPQRQESYLGPTLFLLGGNSQFVHPSHHPEIMRLFPRAQMQTVPNAGHWIHADRPQDFIAAIRGFLV [ABHD11] ?
Response line: 0.492

Prompt line: Which solubility in G1/S (log2) is listed for MVHQVLYRALVSTKWLAESIRTGKLGPGLRVLDASWYSPGTREARKEYLERHVPGASFFDIEECRDTASPYEMMLPSEAGFAEYVGRLGISNHTHVVVYDGEHLGSFYAPRVWWMFRVFGHRTVSVLNGGFRNWLKEGHPVTSEPSRPEPAVFKATLDRSLLKTYEQVLENLESKRFQLVDSRSQGRFLGTEPEPDAVGLDSGHIRGAVNMPFMDFLTEDGFEKGPEELRALFQTKKVDLSQPLIATCRKGVTACHVALAAYLCGKPDVAVYDGSWSEWFRRAPPESRVSQGKSEKA [TST] ?
Response line: 0.187
